# EXPERIMENTAL TARGET: Protein kinase C zeta type (Homo sapiens, UniProt Q05513)
# Sequence (Q05513 whole entry): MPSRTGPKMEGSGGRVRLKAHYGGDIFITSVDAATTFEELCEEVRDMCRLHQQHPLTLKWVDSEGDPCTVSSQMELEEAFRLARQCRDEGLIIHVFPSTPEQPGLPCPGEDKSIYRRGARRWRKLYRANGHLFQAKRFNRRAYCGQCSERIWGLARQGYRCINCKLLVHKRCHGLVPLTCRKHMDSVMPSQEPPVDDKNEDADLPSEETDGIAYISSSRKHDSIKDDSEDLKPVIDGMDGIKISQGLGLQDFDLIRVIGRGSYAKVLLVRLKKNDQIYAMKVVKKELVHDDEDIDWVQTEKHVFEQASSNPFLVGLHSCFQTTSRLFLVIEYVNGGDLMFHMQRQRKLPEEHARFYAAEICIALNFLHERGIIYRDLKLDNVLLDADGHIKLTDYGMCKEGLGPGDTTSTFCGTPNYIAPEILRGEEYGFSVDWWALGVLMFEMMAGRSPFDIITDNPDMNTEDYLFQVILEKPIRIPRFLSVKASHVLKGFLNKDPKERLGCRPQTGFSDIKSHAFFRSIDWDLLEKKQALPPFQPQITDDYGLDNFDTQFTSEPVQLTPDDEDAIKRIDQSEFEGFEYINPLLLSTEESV
PROPERTY NAME: pIC50
Give bare numbers, as −log10 of the molar value.

Documented pIC50 of CCOC(=O)C1=C(O)C(=O)N(c2nc3ccc(Cl)cc3s2)C1c1cccs1 (stereo unspecified) : 4.75
